Where do these numbers come from? They come from ChEMBL document CHEMBL3988442.

List of Percent Effect values.
- System: Wolbachia pipientis
- test summary: Anti-Wolbachia Cell-Based Screen
- Assay type: functional
- Parameters: scale not given: in the data most compounds retested in dose-response had high values
- condition details: 5 µM
The campaign covered roughly 48,000 compounds. About 13,000 (27%) showed an effect of 50% or more. Some of the results follow.
Provide the reading as a plain figure in %.

Worked cases, Percent Effect given:
COCCn1c(=O)n(Cc2cccc(F)c2F)c2cc(C(=O)O)ccc21 ... -6.581
CS(=O)(=O)N1CCC(NC(=O)COc2cccc(Cl)c2)CC1 ... 141.5
CC(C)c1nccn1C(C)C(=O)NC1CCN(S(C)(=O)=O)CC1 (centres undefined) ... -4.449
O=C(Cc1ccsc1)N1CCCCC1c1ccn2ccnc2n1 (centres undefined) ... 73.59
Cc1cn([C@H]2CCNC[C@]2(C)O)c(=O)[nH]c1=O ... 91.37
Cc1nc(CC(=O)N2CCCCC2c2ccn3ccnc3n2)cs1 (centres undefined) ... -8.343

[in] Return Percent Effect for the following molecule: O=C(Cc1cccs1)N1CCCCC1c1ccn2ccnc2n1 (centres undefined)
[out] 83.71

[in] Return Percent Effect for the following molecule: Cc1ccc(OCC(=O)NC2CCN(S(C)(=O)=O)CC2)cc1
[out] 137.9

[in] Return Percent Effect for the following molecule: CCCC(C(=O)NC1CCN(S(C)(=O)=O)CC1)c1ccccc1 (centres undefined)
[out] -7.418

[in] Return Percent Effect for the following molecule: O=C(O)CNC(=O)Cc1csc(-c2ccccc2F)n1
[out] 127.8

[in] Return Percent Effect for the following molecule: Cc1ccc(OCC(=O)NS(=O)(=O)Cc2ccccc2)cc1
[out] 1.419

[in] Return Percent Effect for the following molecule: Cc1cccc(C(=O)N2CCC(C(=O)c3cc(F)ccc3F)CC2)n1
[out] 159.7

[in] Return Percent Effect for the following molecule: O=C(COc1ccc(Cl)cc1)NCc1nncn1C1CC1
[out] -10.37

[in] Return Percent Effect for the following molecule: O=C(Cc1cccs1)N1CCOCC1CO (centres undefined)
[out] -3.953

[in] Return Percent Effect for the following molecule: CC(Cn1cccn1)NCc1csc(-c2ccccc2F)n1 (centres undefined)
[out] 0.9927

[in] Return Percent Effect for the following molecule: O=C(c1cc(F)ccc1F)C1CCN(C(=O)c2ccco2)CC1
[out] 137.2

[in] Return Percent Effect for the following molecule: CC(Oc1cccc(Cl)c1)C(=O)Nc1cnn(CC(=O)NC2CC2)c1 (centres undefined)
[out] 3.95

[in] Return Percent Effect for the following molecule: Cc1cn(CC(=O)NC2CCN(S(C)(=O)=O)CC2)c2ccccc12
[out] -0.9919

[in] Return Percent Effect for the following molecule: CN1CC(NC(=O)CCOc2cccc(Cl)c2)CC1=O (centres undefined)
[out] -1.154

[in] Return Percent Effect for the following molecule: OCC1(CCOc2ccccc2)CCN(c2ccc(Cl)cn2)CC1
[out] -3.583

[in] Return Percent Effect for the following molecule: CC(C)N(CCS(C)(=O)=O)Cc1csc(-c2ccccc2F)n1
[out] -5.187

[in] Return Percent Effect for the following molecule: Cc1cn([C@@H]2CC3(CCNCC3)OC[C@@]2(C)O)c(=O)[nH]c1=O
[out] 120.3

[in] Return Percent Effect for the following molecule: CCn1cc(C(=O)NC2CCN(S(C)(=O)=O)CC2)c2ccccc21
[out] -0.7206

[in] Return Percent Effect for the following molecule: COCCNc1nc2c(c(NCc3ccncc3)n1)CCNCC2
[out] 24.23
